# target entity: T1, human neurotensin receptor type 1 (human, UniProt P30989 1-418)
# T1 construct: whole, on cells; Used as cell membrane homogenates (0.5 ug/well), not intact cells; also called hNTR-1; Human NTR-1
# T1 sequence (P30989 whole entry): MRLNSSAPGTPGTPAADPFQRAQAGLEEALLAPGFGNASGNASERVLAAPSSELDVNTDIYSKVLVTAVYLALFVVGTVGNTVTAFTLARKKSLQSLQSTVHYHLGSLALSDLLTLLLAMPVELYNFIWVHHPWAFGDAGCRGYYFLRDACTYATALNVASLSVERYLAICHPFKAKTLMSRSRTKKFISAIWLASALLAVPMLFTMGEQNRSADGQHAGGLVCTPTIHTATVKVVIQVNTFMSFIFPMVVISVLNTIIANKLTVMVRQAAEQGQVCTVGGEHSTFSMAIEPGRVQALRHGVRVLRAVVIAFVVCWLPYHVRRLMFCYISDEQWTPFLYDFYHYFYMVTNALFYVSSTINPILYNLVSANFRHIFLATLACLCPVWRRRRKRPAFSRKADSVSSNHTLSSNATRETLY
# procedure details: competition with [3H]-neurotensin on membranes of CHO cells expressing human NTR-1; Ki from mean IC50 by Cheng-Prusoff
Bridge positions count the residues as written; N and C are the ends. Square brackets hold non-standard residues; d marks the D form. * marks the point of attachment. Tle = CC(C)(C)[C@H](N)C(=O)O; Pip = O=C(O)[C@@H]1CCCCN1; Propionyl = CCC(=O)*; Sar = CNCC(=O)O
measured parameter: pKi
In simple prose, pKi is minus the logarithm base ten of a concentration in moles per litre.

Please give the measured pKi for this binder: Propionyl-[dC]M[Pip]RLR[Sar]CRRPW[Tle]L-OH (disulfide 1-8; SMILES CCC(=O)N[C@@H]1CSSC[C@@H](C(=O)N[C@@H](CCCNC(=N)N)C(=O)N[C@@H](CCCNC(=N)N)C(=O)N2CCC[C@H]2C(=O)N[C@@H](Cc2c[nH]c3ccccc23)C(=O)N[C@H](C(=O)N[C@@H](CC(C)C)C(=O)O)C(C)(C)C)NC(=O)CN(C)C(=O)[C@H](CCCNC(=N)N)NC(=O)[C@H](CC(C)C)NC(=O)[C@H](CCCNC(=N)N)NC(=O)[C@@H]2CCCCN2C(=O)[C@H](CCSC)NC1=O) [compound XVIII, SEQ ID NO: 9-[Trp11, Tle12]NT(8-13)]
8.53

Please give the measured pKi for this binder: Propionyl-[dC]M[Pip]RLR[Sar]CKRPW[Tle]L-OH (disulfide 1-8; SMILES CCC(=O)N[C@@H]1CSSC[C@@H](C(=O)N[C@@H](CCCCN)C(=O)N[C@@H](CCCNC(=N)N)C(=O)N2CCC[C@H]2C(=O)N[C@@H](Cc2c[nH]c3ccccc23)C(=O)N[C@H](C(=O)N[C@@H](CC(C)C)C(=O)O)C(C)(C)C)NC(=O)CN(C)C(=O)[C@H](CCCNC(=N)N)NC(=O)[C@H](CC(C)C)NC(=O)[C@H](CCCNC(=N)N)NC(=O)[C@@H]2CCCCN2C(=O)[C@H](CCSC)NC1=O) [compound XIX, SEQ ID NO: 9-[Lys8, Trp11, Tle12]NT(8-13)]
8.20
